target: Ku protein (Ku70/Ku80 heterodimer) (Homo sapiens, UniProt P12956;P13010 P12956:2-609,P13010:2-732); assay: EMSA; 5 mM MgCl2; conditions: tags: none, purified from HeLa cell nuclear extracts
Sequence (P12956 2-609, chain 1 of 2): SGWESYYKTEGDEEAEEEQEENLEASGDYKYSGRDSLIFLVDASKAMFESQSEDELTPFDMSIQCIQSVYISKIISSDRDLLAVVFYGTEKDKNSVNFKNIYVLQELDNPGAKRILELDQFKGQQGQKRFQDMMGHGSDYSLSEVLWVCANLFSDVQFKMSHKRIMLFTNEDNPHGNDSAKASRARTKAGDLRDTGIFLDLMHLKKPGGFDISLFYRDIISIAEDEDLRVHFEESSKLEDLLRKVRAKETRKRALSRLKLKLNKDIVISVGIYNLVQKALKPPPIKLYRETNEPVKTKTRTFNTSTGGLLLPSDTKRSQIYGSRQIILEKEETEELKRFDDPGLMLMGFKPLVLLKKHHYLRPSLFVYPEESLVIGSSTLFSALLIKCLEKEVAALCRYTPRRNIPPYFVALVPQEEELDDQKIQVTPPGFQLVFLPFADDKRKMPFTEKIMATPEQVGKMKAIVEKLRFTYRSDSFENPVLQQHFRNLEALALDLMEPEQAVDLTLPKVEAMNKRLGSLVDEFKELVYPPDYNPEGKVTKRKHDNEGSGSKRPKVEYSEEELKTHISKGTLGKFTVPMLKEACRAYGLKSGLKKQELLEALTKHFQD
Sequence (P13010 2-732, chain 2 of 2): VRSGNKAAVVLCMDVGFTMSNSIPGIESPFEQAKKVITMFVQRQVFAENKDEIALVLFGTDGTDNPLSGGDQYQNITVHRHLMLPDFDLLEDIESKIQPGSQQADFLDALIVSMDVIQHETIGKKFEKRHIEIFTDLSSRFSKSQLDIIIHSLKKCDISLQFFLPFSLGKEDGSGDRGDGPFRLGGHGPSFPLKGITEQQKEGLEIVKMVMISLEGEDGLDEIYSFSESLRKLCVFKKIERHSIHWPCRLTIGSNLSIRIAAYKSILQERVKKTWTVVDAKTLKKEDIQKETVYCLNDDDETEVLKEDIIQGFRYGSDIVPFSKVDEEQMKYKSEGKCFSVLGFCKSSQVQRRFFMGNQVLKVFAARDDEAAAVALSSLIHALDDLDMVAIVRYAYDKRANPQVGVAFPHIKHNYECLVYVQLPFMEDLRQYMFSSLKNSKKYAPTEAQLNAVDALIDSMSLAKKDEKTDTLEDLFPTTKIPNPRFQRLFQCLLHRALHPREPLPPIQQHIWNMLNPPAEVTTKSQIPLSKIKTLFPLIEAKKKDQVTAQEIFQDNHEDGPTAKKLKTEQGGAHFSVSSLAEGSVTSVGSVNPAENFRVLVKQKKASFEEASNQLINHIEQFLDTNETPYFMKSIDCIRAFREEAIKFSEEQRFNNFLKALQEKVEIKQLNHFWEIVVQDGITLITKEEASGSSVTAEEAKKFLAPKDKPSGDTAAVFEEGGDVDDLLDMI
property_measured: Kd (pM)
Could you give me the number in pM? Just the number is fine.

For this binder ( #2 (ssRNA) RNA: GGGAGGAUAUUUUCUCAGACCGUAAGCCUAUGCACGGAGCUUUCCCAGCUACAGAUGAAACCAGCUUGCAGCAUCGUGAACUAGGAUC ), measured Kd is 300
